- Tested on: SK-OV-3 ovarian
- assay.method.text: NCI-60 one-dose screen, 48 h (100 = growth as untreated, 0 = no growth, -100 = all killed)
- test.context: 10 µM unless noted
Compounds without any hit were thinned out: in the full panel of roughly 83,000, 20% have a hit.

[
  {
    "compound": "CCOC(=O)CC(c1ccccc1)C(C#N)c1ccccc1 (configuration not stated)",
    "test.system": "SK-OV-3 ovarian",
    "growth, %": 95.1
  },
  {
    "compound": "O=C1CN(Cc2ccc(C(=O)NO)cc2)C(=O)[C@@H](Cc2ccccc2)N1",
    "test.system": "SK-OV-3 ovarian",
    "growth, %": 96.5
  },
  {
    "compound": "CCCC(NC(=O)OCc1ccccc1)C(=O)O (configuration not stated)",
    "test.system": "SK-OV-3 ovarian",
    "growth, %": 119
  },
  {
    "compound": "Nc1nnc(CSc2nnc3n(Cc4ccccc4)c(=O)c4c5c(sc4n23)CCCC5)s1",
    "test.system": "SK-OV-3 ovarian",
    "growth, %": 42.7
  },
  {
    "compound": "CCOC(=O)C(c1ccccc1)N1C(=O)c2ccccc2C1=O (configuration not stated)",
    "test.system": "SK-OV-3 ovarian",
    "growth, %": 95.4
  },
  {
    "compound": "Cc1cc(C)nc(SCC(=O)Nc2cccc(N=Cc3ccccc3O)c2)n1",
    "test.system": "SK-OV-3 ovarian",
    "growth, %": 94.5
  },
  {
    "compound": "Nc1cc(C(=O)O)[nH]c(=S)n1",
    "test.system": "SK-OV-3 ovarian",
    "growth, %": 115
  },
  {
    "compound": "NC(=O)CC1C=CCC1 (configuration not stated)",
    "test.system": "SK-OV-3 ovarian",
    "growth, %": 105
  },
  {
    "compound": "C[N+](C)(C)c1ncnc2[n-]cnc12",
    "test.system": "SK-OV-3 ovarian",
    "growth, %": 98.7
  },
  {
    "compound": "CO[C@H]1CC[C@@]2(C)C(=CC[C@H]3[C@@H]4C[C@H](O)C[C@@]4(C)CC[C@@H]32)C1",
    "test.system": "SK-OV-3 ovarian",
    "growth, %": 39.1
  },
  {
    "compound": "Cc1nc(-c2ccccc2)sc1CC#N",
    "test.system": "SK-OV-3 ovarian",
    "growth, %": 108
  },
  {
    "compound": "N#C/C(C(=O)c1ccccc1)=C1/C(=O)Nc2ccccc21",
    "test.system": "SK-OV-3 ovarian",
    "growth, %": 85.3
  }
]

###

- Test system: SK-MEL-5 melanoma
- assay.method.text: NCI-60 one-dose screen, 48 h
- test.context: 10 µM unless noted
Compounds without any hit were thinned out: in the full panel of roughly 83,000, 20% have a hit. Calls of active or inactive are those of the source. How the source made its calls: active means growth percent below 10; inactive means the rest.
Possible outcomes: True (active), False (inactive)

[
  {
    "molecule": "COC(=O)c1cc2c(=O)[nH]cc3c2c(n1)CCC3",
    "category": "False"
  },
  {
    "molecule": "Nc1nc(Nc2ccccc2)c2ncn(Cc3ccc4c(c3)OCO4)c2n1",
    "category": "False"
  },
  {
    "molecule": "O=C1NC(=O)C(Cc2ccccc2)(Cc2ccccc2)N1",
    "category": "False"
  },
  {
    "molecule": "CC(C)C1=NOC(=O)C1=Cc1cn(-c2ccccc2)nc1-c1ccc(Cl)cc1",
    "category": "False"
  },
  {
    "molecule": "COc1ccc(C(=O)CSc2nnc(-c3cc(-c4ccccc4)nc4ccccc34)o2)cc1",
    "category": "False"
  },
  {
    "molecule": "C#C[C@]1(O)CC[C@H]2[C@@H]3CC=C4c5nc(Nc6ccc(OC)cc6OC)sc5CC[C@]4(C)[C@H]3CC[C@@]21C",
    "category": "True"
  },
  {
    "molecule": "CCOC(=O)C(c1ccccc1)N1C(=O)c2ccccc2C1=O (stereo not given)",
    "category": "False"
  },
  {
    "molecule": "CC(C)C1=NOC(=O)C1=Cc1cn(-c2cccnc2)nc1-c1ccccc1",
    "category": "False"
  },
  {
    "molecule": "Cc1ccc2c(c1)/C(=N\\N=C/c1cn(C(C)C)c3ccccc13)C(=O)N2",
    "category": "False"
  },
  {
    "molecule": "O=[N+]([O-])c1cccc(/C=C/c2ccc3ccccc3n2)c1",
    "category": "False"
  },
  {
    "molecule": "O=C(NCc1ccccc1)C(Cl)Cl",
    "category": "False"
  },
  {
    "molecule": "O=C1Cc2c(sc3c(F)cccc23)C(c2ccccc2[N+](=O)[O-])N1 (stereo not given)",
    "category": "False"
  },
  {
    "molecule": "Clc1ccc2nc(-c3ccc(-c4ccc(/C=N/NC5=NCCN5)cc4)s3)cn2c1",
    "category": "False"
  },
  {
    "molecule": "CC(=O)OC[C@]12CC[C@@H](C(=O)CBr)[C@@H]1[C@H]1CC[C@@H]3[C@@]4(C)CCCNC(C)(C)[C@@H]4CC[C@@]3(C)[C@]1(C)CC2",
    "category": "True"
  },
  {
    "molecule": "CCCCCN(CCCCC)CCCCCCCCN1CCCc2ccccc21",
    "category": "False"
  },
  {
    "molecule": "O=C1CC(c2ccccc2)Cc2nc3ccc(Cl)cc3cc21 (stereo not given)",
    "category": "True"
  },
  {
    "molecule": "CC/C=C(\\C)C(CCC)(CN=O)C(=O)OCC (stereo not given)",
    "category": "False"
  },
  {
    "molecule": "Cc1c(Cn2cc(COc3ccc(Br)cc3)nn2)c(C)c(Cn2cc(COc3ccc(Br)cc3)nn2)c(C)c1Cn1cc(COc2ccc(Br)cc2)nn1",
    "category": "False"
  },
  {
    "molecule": "Cc1ccc(-c2cc(-c3ccc(C)cc3)nc(N3CCN(CCNc4ccnc5cc(Cl)ccc45)CC3)n2)cc1",
    "category": "False"
  },
  {
    "molecule": "C#C[C@]1(O)CC[C@H]2[C@@H]3CC=C4c5nc(Nc6ccccc6[N+](=O)[O-])sc5CC[C@]4(C)[C@H]3CC[C@@]21C",
    "category": "False"
  }
]
